- Tested on: RPMI-8226
- assay.protocol: Antiproliferative activity against human RPMI8226 cells after 84 hrs by CCK8 assay
- Format: functional, cell-based
Calls of active or inactive are those of the source. The calls are words filed in the database; no cut-off is given here.
measurement.kind: Activity

compound: CCN1C(=O)CCC(N2C(=O)c3cccc(NCCOCCn4cc(CN5CCN(c6ccc(Nc7ncc8c(C)c(C(C)=O)c(=O)n(C9CCCC9)c8n7)nc6)CC5)nn4)c3C2=O)C1=O (centres undefined)
measurement.kind: Activity
result: inactive

compound: CCN1C(=O)CCC(N2C(=O)c3cccc(NCCOCCOCCn4cc(CN5CCN(c6ccc(Nc7ncc8c(C)c(C(C)=O)c(=O)n(C9CCCC9)c8n7)nc6)CC5)nn4)c3C2=O)C1=O (centres undefined)
measurement.kind: Activity
result: inactive

compound: CC(=O)c1c(C)c2cnc(Nc3ccc(N4CCN(Cc5cn(CCOCCNc6cccc7c6C(=O)N(C6CCC(=O)NC6=O)C7=O)nn5)CC4)cn3)nc2n(C2CCCC2)c1=O (centres undefined)
measurement.kind: Activity
result: Active

compound: CC(=O)c1c(C)c2cnc(Nc3ccc(N4CCNCC4)cn3)nc2n(C2CCCC2)c1=O
measurement.kind: Activity
result: Active

* * *

- Test system: MM1.S
- assay.protocol: Antiproliferative activity against human MM1S cells after 84 hrs by CCK8 assay
- Assay type: functional, cell-based
pIC50: −log10 of the molar value.
measurement.kind: pIC50

[I] CC(=O)c1c(C)c2cnc(Nc3ccc(N4CCNCC4)cn3)nc2n(C2CCCC2)c1=O
[II] CC(=O)c1c(C)c2cnc(Nc3ccc(N4CCN(Cc5cn(CCOCCNc6cccc7c6C(=O)N(C6CCC(=O)NC6=O)C7=O)nn5)CC4)cn3)nc2n(C2CCCC2)c1=O (configuration not stated)
// compare: I vs II , metric pIC50, want the smaller Reply with the label of the item you choose.
I

* * *

- test.target: Protein cereblon/Cyclin-dependent kinase 6 (Homo sapiens, UniProt Q00534+Q96SW2)
- Sequence (Q00534 whole entry): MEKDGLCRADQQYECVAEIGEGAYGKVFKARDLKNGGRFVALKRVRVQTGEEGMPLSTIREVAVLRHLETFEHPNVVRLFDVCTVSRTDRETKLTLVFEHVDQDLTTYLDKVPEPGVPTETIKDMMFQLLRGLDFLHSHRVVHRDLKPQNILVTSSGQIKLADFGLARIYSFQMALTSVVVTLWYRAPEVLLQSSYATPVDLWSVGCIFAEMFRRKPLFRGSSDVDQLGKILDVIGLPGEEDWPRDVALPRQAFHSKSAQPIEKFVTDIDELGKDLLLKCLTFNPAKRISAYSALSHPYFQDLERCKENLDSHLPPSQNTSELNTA
- Sequence (Q96SW2 whole entry): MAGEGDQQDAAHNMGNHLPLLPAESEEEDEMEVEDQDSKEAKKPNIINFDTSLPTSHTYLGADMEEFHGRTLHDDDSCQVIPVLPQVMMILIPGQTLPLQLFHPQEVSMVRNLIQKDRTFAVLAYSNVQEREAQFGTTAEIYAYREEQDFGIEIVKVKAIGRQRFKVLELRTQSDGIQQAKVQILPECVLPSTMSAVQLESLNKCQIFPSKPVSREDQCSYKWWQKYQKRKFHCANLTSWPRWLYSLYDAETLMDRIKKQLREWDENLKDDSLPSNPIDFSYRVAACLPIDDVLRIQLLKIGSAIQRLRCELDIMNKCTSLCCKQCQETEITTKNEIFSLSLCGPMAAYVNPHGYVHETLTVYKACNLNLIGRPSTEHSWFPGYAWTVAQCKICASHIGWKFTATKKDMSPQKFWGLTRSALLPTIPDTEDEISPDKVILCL
- assay.protocol: Induction of CRBN-mediated CDK6 degradation in human U251 cells after 24 hrs by immunoblot analysis
- Format: cell-based
measurement.kind: DC50 (nM)

# example entries with known answers
compound: Cc1nc2c(F)cc(-c3nc(Nc4ccc(CN5CCN(Cc6cn(CCOCCOCCOCCOCCNc7cccc8c7C(=O)N(C7CCC(=O)NC7=O)C8=O)nn6)CC5)cn4)ncc3F)cc2n1C(C)C (stereo unspecified)
number: 146
--
compound: CC(=O)c1c(C)c2cnc(Nc3ccc(N4CCN(Cc5cn(CCCCCCNc6cccc7c6C(=O)N(C6CCC(=O)NC6=O)C7=O)nn5)CC4)cn3)nc2n(C2CCCC2)c1=O (stereo unspecified)
number: 10.6
--
compound: CC(=O)c1c(C)c2cnc(Nc3ccc(N4CCN(CC(=O)NCCOCCOCCNc5cccc6c5C(=O)N(C5CCC(=O)NC5=O)C6=O)CC4)cn3)nc2n(C2CCCC2)c1=O (stereo unspecified)
number: 24.2

[P] Cc1nc2c(F)cc(-c3nc(Nc4ccc(CN5CCN(Cc6cn(CCOCCOCCNc7cccc8c7C(=O)N(C7CCC(=O)NC7=O)C8=O)nn6)CC5)cn4)ncc3F)cc2n1C(C)C (stereo unspecified)
[Q] CC(=O)c1c(C)c2cnc(Nc3ccc(N4CCN(Cc5cn(CCOCCNc6cccc7c6C(=O)N(C6CCC(=O)NC6=O)C7=O)nn5)CC4)cn3)nc2n(C2CCCC2)c1=O (stereo unspecified)
Could you point out whether the larger DC50 belongs to P or to Q ? Reply with the label of the item you choose.
P
(P: 130 nM, Q: 2.1 nM)

Provenance of the data: ChEMBL document CHEMBL4311951
